# Procedure text: HPLC stability study in phosphate buffers
# Type: physicochemical
# Condition set: phosphate buffer; buffer pH 4, 37°C
# Method: HPLC stability studies at three different pH systems were performed on a representative compound 16a to determine the stability at acidic pH 4, pH 7.4 and basic pH 9 (acid pH found in the stomach, basic found in the intestine and pH 7.4 in the plasma). […]
Reported metric: half-life at 0.03 mg/mL

GET /values?readout=half-life at 0.03 mg/mL&item= COc1ccc(C2C(Br)C(=O)N2c2cc(OC)c(OC)c(OC)c2)cc1 (stereo not shown) [Compound 16a]
18 h

###

Below, each of the compounds is paired with its reported melting point value.

Solved entries (count: 5):
In [3]: df
Out[3]:
                                   compound  value_observed
0  COc1cc(C2C(Cl)C(=O)N2c2ccc(SC)cc2)cc(OC)c1OC (centres unmarked) [Compound 12c]   101 to 103 °C
1  COc1ccc(N2C(=O)C(Cl)C2c2cc(OC)c(OC)c(OC)c2)cc1 (centres unmarked) [Compound 12a]   101 to 102 °C
2  COc1cc(N2C(=O)C(Cl)(Cl)C2c2ccc3ccccc3c2)cc(OC)c1OC (centres unmarked) [Compound 11k]   164 to 166 °C
3  COc1ccc(C2C(Cl)C(=O)N2c2cc(OC)c(OC)c(OC)c2)cc1[N+](=O)[O-] (centres unmarked) [Compound 10m]     93 to 95 °C
4  COc1ccc(C2C(Cl)C(=O)N2c2cc(OC)cc(OC)c2)cc1 (centres unmarked) [Compound 14a]     93 to 94 °C

GET /values?readout=melting point&item= CCOc1ccc(C2C(Cl)C(=O)N2c2cc(OC)cc(OC)c2)cc1 (centres unmarked) [Compound 14b]
129 to 130 °C

GET /values?readout=melting point&item= COc1ccc(C2N(c3cc(OC)c(OC)c(OC)c3)C(=O)C2(Cl)Cl)cc1[N+](=O)[O-] (centres unmarked) [Compound 11m]
117 to 119 °C

GET /values?readout=melting point&item= COc1cc(N2C(=O)C(Cl)(Cl)C2c2ccc(Cl)cc2)cc(OC)c1OC (centres unmarked) [Compound 11b]
150 to 153 °C

###

Below, each of the molecules is paired with its reported LC50 value.
# Test system: NCI 60 cell line panel
# Procedure text: NCI 60 cell line screen, full panel
# Assay type: cell-based
# Condition set: NCI 60 panel mean; read-out: LC50 (mean over NCI 60 panel)
# Text: The novel 3-haloazetidinone compounds 10e, 11n and 16d were selected by NCI for further biological evaluation in the NCI 60 cell line screen following an initial Tier 1 profiling screen. […]. these values were in the sub-micromolar range for all the cell lines tested except for the breast cancer cell line T-47D, where the progesterone receptors are not regulated by estradiol. […]. [table]
State just the number; it will be interpreted in µM.

>>> print(df.to_string())
                                   molecule  value_observed
0  COc1ccc(C2N(c3cc(OC)c(OC)c(OC)c3)C(=O)C2(Cl)Cl)cc1O (centres unmarked) [Compound 11n]            83.2

GET /values?readout=LC50&item= CCSc1ccc(C2C(Br)C(=O)N2c2cc(OC)c(OC)c(OC)c2)cc1 (centres unmarked) [Compound 16d]
81.3

Source listed as paper PMC8624998.
